Test: NOVARTIS: Cytotoxicity against human hepatocellular carcinoma cell line (Huh7)
Format: toxicity, cell-based, Huh-7
Conditions: Huh7 cells (hepatocellular carcinoma cell line)
Here, each record is paired with measured CC50 data.

Q. Note CC50 for the molecule shown: CCN(CC)CCCC(C)NC(=O)CSc1nc2ccccc2c(=O)n1-c1cccc(Cl)c1 (stereo not given)
A. > 10 µM

Q. Note CC50 for the molecule shown: "CCOc1ccc(C(=O)C[N+]2=C(CC)c3ccc(C)n3CC2)cc1"
A. 81 µM

Q. Note CC50 for the molecule shown: O=C1N(Cc2cc3ccccc3s2)CC2CN(Cc3ccsc3)CCN12 (stereo not given)
A. > 100 µM

Q. Note CC50 for the molecule shown: "COc1ccc2[nH]cc(CCNC(=O)Oc3ccccc3)c2c1"
A. > 10 µM

Q. Note CC50 for the molecule shown: "CCc1cccc2c(C#N)cn(CC(=O)Nc3ccc(OC)cc3)c12"
A. > 100 µM

Q. Note CC50 for the molecule shown: O=C1C2CN(C(=O)Nc3ccccc3)C(c3ccc(Cl)cc3)C2C(=O)N1c1ccccc1 (stereo not given)
A. > 10 µM

Q. Note CC50 for the molecule shown: "O=C(Nc1cc(Cl)ccc1O)c1cnn2c(C(F)(F)F)cc(-c3ccc(F)cc3)nc12"
A. > 100 µM

Q. Note CC50 for the molecule shown: "O=C(Nc1ccc(NC2=NCCN2)cc1)c1ccc(C(=O)Nc2ccc(NC3=NCCN3)cc2)cc1"
A. > 10 µM

Q. Note CC50 for the molecule shown: "CC(=NNC(=O)/C(=C\c1ccc([N+](=O)[O-])cc1)NC(=O)c1ccccc1)c1ccccn1"
A. > 100 µM

Q. Note CC50 for the molecule shown: "CN1CCN=C1c1ccc(NC(=O)Nc2ccc(NC(=O)Nc3ccc(C4=NCCN4C)cc3)cc2)cc1"
A. > 10 µM
